measured_on: MMP-2 (Homo sapiens, UniProt P08253)
Sequence (P08253 110-660): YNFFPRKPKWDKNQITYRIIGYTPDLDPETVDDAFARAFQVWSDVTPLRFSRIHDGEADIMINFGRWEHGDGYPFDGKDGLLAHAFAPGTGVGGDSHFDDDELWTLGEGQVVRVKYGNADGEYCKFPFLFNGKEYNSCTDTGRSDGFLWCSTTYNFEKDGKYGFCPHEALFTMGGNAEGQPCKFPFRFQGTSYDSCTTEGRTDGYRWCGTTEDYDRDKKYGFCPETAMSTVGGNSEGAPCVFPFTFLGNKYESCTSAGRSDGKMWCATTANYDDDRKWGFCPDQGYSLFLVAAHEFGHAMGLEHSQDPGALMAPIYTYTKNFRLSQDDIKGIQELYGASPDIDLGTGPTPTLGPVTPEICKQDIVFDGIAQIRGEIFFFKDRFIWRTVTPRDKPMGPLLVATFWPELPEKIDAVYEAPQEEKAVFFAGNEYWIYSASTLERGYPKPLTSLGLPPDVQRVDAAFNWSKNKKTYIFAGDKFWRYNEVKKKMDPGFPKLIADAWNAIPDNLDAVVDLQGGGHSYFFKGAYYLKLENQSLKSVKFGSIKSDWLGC
The reader will find reported IC50 values listed item by item below.

Here is how some molecules turned out for IC50.
INSERT INTO measurements (input_smiles, experimental_result) VALUES
  ('COc1ccc(C[C@H](NS(=O)(=O)c2ccc(-c3ccc(C#Cc4ccc5cc(OC)ccc5c4)cc3)cc2)C(=O)O)cc1', '> 10 µM'),
  ('COc1ccc2cc(C#Cc3ccc(-c4ccc(S(=O)(=O)N[C@H](C(=O)O)C(C)C)cc4)cc3)ccc2c1', '> 4 µM'),
  ('C[C@H](NS(=O)(=O)c1ccc(-c2ccc(C#Cc3ccc4ccccc4c3)cc2)cc1)C(=O)O', '> 10 µM');

In: For the molecule `COc1ccc2cc(C#Cc3ccc(-c4ccc(S(=O)(=O)N[C@H](C)C(=O)O)cc4)cc3)ccc2c1` , what IC50 is on record?
Out: > 10 µM

###

measured_on: MMP-13 (Homo sapiens, UniProt P45452)
Construct: catalytic domain (^104Tyr˜^267Gly) was amplified with RT-PCR; His-tag; enterokinase digestion-site
protocol_notes: Assay for inhibitory activities on MMPs (fluorogenic peptide substrate), MMP-13
pIC50: −log10 of the molar value.
Binary call on pIC50: label 1 from 8 upward, label 0 beneath that.

INSERT INTO results (input_smiles, group) VALUES
  ('Cc1c(C(=O)Nc2ccc(-c3ccc(S(=O)(=O)N[C@H](Cc4ccccc4)C(=O)O)cc3)cc2)oc2ccccc12', 'label 0'),
  ('COc1ccc2cc(C#Cc3ccc(-c4ccc(S(=O)(=O)NC5(C(=O)O)CCCCC5)cc4)cc3)ccc2c1', 'label 0'),
  ('COc1ccc2cc(C#Cc3ccc(-c4ccc(S(=O)(=O)N[C@H](CC(=O)O)C(=O)O)cc4)cc3)ccc2c1', 'label 1');

In: Hello, I need to know if `COc1ccc2cc(C(=O)Nc3ccc(-c4ccc(S(=O)(=O)N[C@H](Cc5ccccc5)C(=O)O)cc4)cc3)ccc2c1` has measured pIC50 not below 8. Thanks!
Out: label 0

In: Hello, I need to know if `COc1ccc(C(=O)Nc2ccc(-c3ccc(S(=O)(=O)N[C@H](Cc4ccccc4)C(=O)O)cc3)cc2)cc1` has measured pIC50 not below 8. Thanks!
Out: label 0

In: Hello, I need to know if `O=C(Nc1ccc(-c2ccc(S(=O)(=O)N[C@H](Cc3ccccc3)C(=O)O)cc2)cc1)c1ccccc1` has measured pIC50 not below 8. Thanks!
Out: label 0

In: Hello, I need to know if `O=C(Nc1ccc(-c2ccc(S(=O)(=O)N[C@H](Cc3ccccc3)C(=O)O)cc2)cc1)c1ccc2c(c1)OCO2` has measured pIC50 not below 8. Thanks!
Out: label 0

In: Hello, I need to know if `COc1ccc2cc(C#Cc3ccc(-c4ccc(S(=O)(=O)N[C@@H](CCSC)C(=O)O)cc4)cc3)ccc2c1` has measured pIC50 not below 8. Thanks!
Out: label 0

In: Hello, I need to know if `COc1cccc(C(=O)Nc2ccc(-c3ccc(S(=O)(=O)N[C@H](C)C(=O)O)cc3)cc2)c1` has measured pIC50 not below 8. Thanks!
Out: label 0

In: Hello, I need to know if `COc1ccc2cc(C#Cc3ccc(-c4ccc(S(=O)(=O)N[C@H](CO)C(=O)O)cc4)cc3)ccc2c1` has measured pIC50 not below 8. Thanks!
Out: label 1

In: Hello, I need to know if `CC(C)C[C@H](NS(=O)(=O)c1ccc(-c2ccc(C#Cc3ccc4ccccc4c3)cc2)cc1)C(=O)O` has measured pIC50 not below 8. Thanks!
Out: label 1

In: Hello, I need to know if `O=C(Nc1ccc(-c2ccc(S(=O)(=O)N[C@H](Cc3ccccc3)C(=O)O)s2)cc1)c1ccc2ccccc2c1` has measured pIC50 not below 8. Thanks!
Out: label 0

In: Hello, I need to know if `COc1ccc2cc(C#Cc3ccc(-c4ccc(S(=O)(=O)N[C@@H](Cc5ccccc5)C(=O)O)cc4)cc3)ccc2c1` has measured pIC50 not below 8. Thanks!
Out: label 0
